- protocol-description: Cmax in mouse at 10 mg/kg, ip
- Assay type: ADME, organism-based
- Parameters: dose 10 mg/kg, route intraperitoneal
- test-settings: in vivo
metric: Cmax (µM)
Give the number; µM is assumed, so skip it.

The recorded Cmax for COc1cc2c(cc1CN1CCN(C)CC1)Cc1c(-c3ccc(-c4ccc(O)c(F)c4)cc3)n[nH]c1-2 is 1.3

The recorded Cmax for O=C(NCc1ccccn1)c1ccc2c(c1)Cc1c(-c3ccc(-c4ccc(O)cc4)cc3)n[nH]c1-2 is 2

The recorded Cmax for COc1cc2c(cc1C(=O)NCc1ccccn1)Cc1c(-c3ccc(-c4ccc(O)c(F)c4)cc3)n[nH]c1-2 is 2.8

The recorded Cmax for COc1cc2c(cc1C(=O)N[C@H]1CC[C@H](O)CC1)Cc1c(-c3ccc(-c4ccc(O)cc4)cc3)n[nH]c1-2 is 1.5

The recorded Cmax for CN1CCN(Cc2ccc3c(c2)Cc2c(-c4ccc(-c5ccc(O)cc5)cc4)n[nH]c2-3)CC1 is 1.1

###

- protocol-description: Half life in mouse at 3 mg/kg, iv
- Type: ADME, organism-based
- Design: dose 3 mg/kg, route intravenous
- test-settings: in vivo
metric: half-life (min)
Give the number; min is assumed, so skip it.

Below, each entry is followed by its recorded half-life result.
compound-string | metric | scale-unit | assay-result
COc1cc2c(cc1CN1CCN(C)CC1)Cc1c(-c3ccc(-c4ccc(O)c(F)c4)cc3)n[nH]c1-2 | half-life | min | 36
COc1cc2c(cc1C(=O)NCc1ccccn1)Cc1c(-c3ccc(-c4ccc(O)c(F)c4)cc3)n[nH]c1-2 | half-life | min | 27.6
CN1CCN(Cc2ccc3c(c2)Cc2c(-c4ccc(-c5ccc(O)cc5)cc4)n[nH]c2-3)CC1 | half-life | min | 30
O=C(NCc1ccccn1)c1ccc2c(c1)Cc1c(-c3ccc(-c4ccc(O)cc4)cc3)n[nH]c1-2 | half-life | min | 36

Proceeding to the next compound to report its half-life.
The recorded half-life for COc1cc2c(cc1C(=O)N[C@H]1CC[C@H](O)CC1)Cc1c(-c3ccc(-c4ccc(O)cc4)cc3)n[nH]c1-2 is 23.4

###

- protocol-description: Cmax in mouse at 10 mg/kg, po
- Type: ADME, organism-based
- Design: dose 10 mg/kg, route oral
- test-settings: in vivo
metric: Cmax (nM)
Give the number; nM is assumed, so skip it.

Below, each entry is followed by its recorded Cmax result.
compound-string | Cmax [nM]
COc1cc2c(cc1CN1CCN(C)CC1)Cc1c(-c3ccc(-c4ccc(O)c(F)c4)cc3)n[nH]c1-2 | 80
O=C(NCc1ccccn1)c1ccc2c(c1)Cc1c(-c3ccc(-c4ccc(O)cc4)cc3)n[nH]c1-2 | 250

The recorded Cmax for CN1CCN(Cc2ccc3c(c2)Cc2c(-c4ccc(-c5ccc(O)cc5)cc4)n[nH]c2-3)CC1 is 90

###

- protocol-description: Aqueous solubility at neutral pH
- Type: physicochemical
- test-settings: buffer
metric: solubility

compound-string | assay-result
CN1CCN(Cc2ccc3c(c2)Cc2c(-c4ccc(-c5ccc(O)cc5)cc4)n[nH]c2-3)CC1 | < 0.03 µg/mL

Proceeding to the next molecule to report its solubility.
The recorded solubility for O=C(NCc1ccccn1)c1ccc2c(c1)Cc1c(-c3ccc(-c4ccc(O)cc4)cc3)n[nH]c1-2 is < 0.03 µg/mL

###

- protocol-description: Metabolic stability in rat liver microsome assessed as […] at 1 uM
- Format: ADME
- test-settings: liver microsomes, read-out: Activity (converted)
metric: k el at 1 µM (s⁻¹)
Give the number; s⁻¹ is assumed, so skip it.

The recorded k el at 1 µM for O=C(NCc1ccccn1)c1ccc2c(c1)Cc1c(-c3ccc(-c4ccc(O)cc4)cc3)n[nH]c1-2 is 0.00049

###

- protocol-description: Metabolic stability in rat liver microsomes assessed as half life at 1 uM
- Format: ADME, Microsome
metric: half-life at 1 µM (min)
Give the number; min is assumed, so skip it.

The recorded half-life at 1 µM for O=C(NCc1ccccn1)c1ccc2c(c1)Cc1c(-c3ccc(-c4ccc(O)cc4)cc3)n[nH]c1-2 is 25

###

- system-name: Serine/threonine-protein kinase Chk1 (Homo sapiens, UniProt O14757)
- Sequence (O14757 whole entry): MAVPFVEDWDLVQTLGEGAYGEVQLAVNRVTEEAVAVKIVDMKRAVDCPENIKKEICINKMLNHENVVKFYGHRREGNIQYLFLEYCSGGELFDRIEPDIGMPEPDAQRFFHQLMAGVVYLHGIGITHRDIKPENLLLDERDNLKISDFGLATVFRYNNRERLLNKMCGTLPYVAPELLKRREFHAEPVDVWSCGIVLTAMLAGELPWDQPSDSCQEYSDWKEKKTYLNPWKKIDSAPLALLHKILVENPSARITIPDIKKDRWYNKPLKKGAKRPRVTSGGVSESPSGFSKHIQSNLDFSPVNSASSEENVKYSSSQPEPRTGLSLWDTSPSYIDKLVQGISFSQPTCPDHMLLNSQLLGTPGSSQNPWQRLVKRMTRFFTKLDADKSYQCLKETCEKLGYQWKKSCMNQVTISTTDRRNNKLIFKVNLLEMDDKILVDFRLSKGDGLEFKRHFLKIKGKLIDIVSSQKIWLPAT
- protocol-description: Inhibition of recombinant CHK-mediated Cdc25C phosphorylation after 30 mins
Item-by-item account of pIC50
Bear in mind: pIC50 is minus log10 of a mol/L concentration; give just that figure.

The recorded pIC50 for Oc1ccc(-c2ccc(-c3[nH]nc4c3Cc3cccc(O)c3-4)cc2)cc1 is 6.17

###

- protocol-description: AUC in mouse at 10 mg/kg, po
- Assay type: ADME, organism-based
- Parameters: dose 10 mg/kg, route oral
- test-settings: plasma
metric: AUC (ng·h/mL)
Give the number; ng·h/mL is assumed, so skip it.

compound-string | AUC (ng·h/mL)
COc1cc2c(cc1CN1CCN(C)CC1)Cc1c(-c3ccc(-c4ccc(O)c(F)c4)cc3)n[nH]c1-2 | 130
O=C(NCc1ccccn1)c1ccc2c(c1)Cc1c(-c3ccc(-c4ccc(O)cc4)cc3)n[nH]c1-2 | 160

Proceeding to the next compound to report its AUC.
The recorded AUC for CN1CCN(Cc2ccc3c(c2)Cc2c(-c4ccc(-c5ccc(O)cc5)cc4)n[nH]c2-3)CC1 is 450

###

- protocol-description: Volume of distribution in mouse at 3 mg/kg, iv
- Format: ADME, organism-based
- Parameters: dose 3 mg/kg, route intravenous
- test-settings: in vivo, read-out: Vdss
metric: Vd

compound-string | metric | assay-result
O=C(NCc1ccccn1)c1ccc2c(c1)Cc1c(-c3ccc(-c4ccc(O)cc4)cc3)n[nH]c1-2 | Vd | 4.7 L/kg
COc1cc2c(cc1C(=O)N[C@H]1CC[C@H](O)CC1)Cc1c(-c3ccc(-c4ccc(O)cc4)cc3)n[nH]c1-2 | Vd | 6 L/kg
COc1cc2c(cc1C(=O)NCc1ccccn1)Cc1c(-c3ccc(-c4ccc(O)c(F)c4)cc3)n[nH]c1-2 | Vd | 2.4 L/kg
COc1cc2c(cc1CN1CCN(C)CC1)Cc1c(-c3ccc(-c4ccc(O)c(F)c4)cc3)n[nH]c1-2 | Vd | 9.2 L/kg

Proceeding to the next molecule to report its Vd.
The recorded Vd for CN1CCN(Cc2ccc3c(c2)Cc2c(-c4ccc(-c5ccc(O)cc5)cc4)n[nH]c2-3)CC1 is 3.4 L/kg

###

- system-name: Serine/threonine-protein kinase Chk1 (Homo sapiens, UniProt O14757)
- protocol-description: Inhibition of recombinant CHK-mediated Cdc25C phosphorylation after 30 mins
Could you mark each record Met if its IC50 falls strictly under 7 nM, and Not met if it equals or exceeds it?

Completed entries (count: 3):
compound-string | category-label
COc1cc2c(cc1CN[C@H]1CC[C@H](O)CC1)Cc1c(-c3ccc(-c4ccc(O)cc4)cc3)n[nH]c1-2 | Met
COc1cc2c(cc1C(=O)N[C@H]1CC[C@H](O)CC1)C(C)(C)c1c(-c3ccc(-c4ccc(O)cc4)cc3)n[nH]c1-2 | Not met
COc1cc2c(cc1C(=O)NCc1ccccn1)Cc1c(-c3ccc(-c4ccc(O)c(C#N)c4)cc3)n[nH]c1-2 | Not met

Problem: For CC(C)(C)NCc1ccc2c(c1)-c1[nH]nc(-c3ccc(-c4ccc(O)cc4)cc3)c1C2 , is the recorded IC50 below the cut-off of 7 nM?
Result: Not met

###

- protocol-description: AUC in mouse at 10 mg/kg, ip
- Type: ADME, organism-based
- Design: dose 10 mg/kg, route intraperitoneal
- test-settings: plasma
metric: AUC (ng·h/mL)
Give the number; ng·h/mL is assumed, so skip it.

The recorded AUC for COc1cc2c(cc1C(=O)N[C@H]1CC[C@H](O)CC1)Cc1c(-c3ccc(-c4ccc(O)cc4)cc3)n[nH]c1-2 is 4200

The recorded AUC for COc1cc2c(cc1C(=O)NCc1ccccn1)Cc1c(-c3ccc(-c4ccc(O)c(F)c4)cc3)n[nH]c1-2 is 3800

The recorded AUC for O=C(NCc1ccccn1)c1ccc2c(c1)Cc1c(-c3ccc(-c4ccc(O)cc4)cc3)n[nH]c1-2 is 4400

The recorded AUC for COc1cc2c(cc1CN1CCN(C)CC1)Cc1c(-c3ccc(-c4ccc(O)c(F)c4)cc3)n[nH]c1-2 is 1600

The recorded AUC for CN1CCN(Cc2ccc3c(c2)Cc2c(-c4ccc(-c5ccc(O)cc5)cc4)n[nH]c2-3)CC1 is 2700

###

- protocol-description: Oral bioavailability in mouse at 10 mg/kg
- Assay type: ADME, organism-based
- test-settings: in vivo
metric: bioavailability (%)
Give the number; % is assumed, so skip it.

Below, each entry is followed by its recorded bioavailability result.
compound-string | scale-unit | bioavailability
CN1CCN(Cc2ccc3c(c2)Cc2c(-c4ccc(-c5ccc(O)cc5)cc4)n[nH]c2-3)CC1 | % | 9
COc1cc2c(cc1C(=O)NCc1ccccn1)Cc1c(-c3ccc(-c4ccc(O)c(F)c4)cc3)n[nH]c1-2 | % | 0
O=C(NCc1ccccn1)c1ccc2c(c1)Cc1c(-c3ccc(-c4ccc(O)cc4)cc3)n[nH]c1-2 | % | 4
COc1cc2c(cc1C(=O)N[C@H]1CC[C@H](O)CC1)Cc1c(-c3ccc(-c4ccc(O)cc4)cc3)n[nH]c1-2 | % | 0

The recorded bioavailability for COc1cc2c(cc1CN1CCN(C)CC1)Cc1c(-c3ccc(-c4ccc(O)c(F)c4)cc3)n[nH]c1-2 is 6

# credit: ChEMBL document CHEMBL1148879
